# Test system: platelet rich plasma
# Test: Human platelet rich plasma assay (ADP induced platelet aggregation)
# Type: cell-based
# Experimental context: ADP induced platelet aggregation in human platelet rich plasma; trifluoroacetate salt; read-out: Human PRP
pIC50: −log10 of the molar value. Structures can show the parent of a compound that is named as a salt.
Observation type: pIC50

Consider the molecule shown here: C#C[C@H](CC(=O)O)NC(=O)CNC(=O)c1cccc(NC(=N)N)c1 [Example 69, trifluoroacetate salt] What is its recorded pIC50?
< 3.70

====

# System name: Human vitronectin receptor (αvβ3) (Homo sapiens, UniProt P05106+P06756)
# Construct: Human vitronectin receptor (αvβ3) was purified from human placenta; from tissue; host or cells: human placenta
# Test: Vitronectin adhesion assay (solid phase receptor assay, competition with biotinylated vitronectin)
# Assay type: binding
# Experimental context: read-out: AvB3 IC50
Where a name gives a salt, the structure may show the parent alone.
Observation type: IC50 (nM)
Report as a plain number; the unit nM is understood.

Here's what some known entries look like.
Molecule: N=C(N)Nc1cccc(C(=O)NCC(=O)NC(CC(=O)O)c2ccc3c(c2)OCCO3)c1 (stereo not drawn) [Example 95, trifluoroacetate salt]
System name: Human vitronectin receptor (αvβ3) (Homo sapiens, UniProt P05106+P06756)
IC50, nM: 1.43
--
Molecule: C#C[C@H](CC(=O)O)NC(=O)CNC(=O)c1cccc(NC(N)=O)c1 [Example 40]
System name: Human vitronectin receptor (αvβ3) (Homo sapiens, UniProt P05106+P06756)
IC50, nM: 10.3
--
Molecule: N#C/N=C(/N)Nc1cccc(C(=O)NCC(=O)NC(CC(=O)O)c2cc(Cl)cc(Cl)c2)c1 (stereo not drawn) [Example 160]
System name: Human vitronectin receptor (αvβ3) (Homo sapiens, UniProt P05106+P06756)
IC50, nM: 25.6
--
Molecule: CCOC(=O)CC(NC(=O)CNC(=O)c1cccc(NC(=O)NCc2ccccc2)c1)c1ccc2c(c1)OCO2 (stereo not drawn) [Example 121]
System name: Human vitronectin receptor (αvβ3) (Homo sapiens, UniProt P05106+P06756)
IC50, nM: 2840
--
Molecule: N=C(NCc1ccccc1)Nc1cccc(C(=O)NCC(=O)NC(CC(=O)O)c2cccnc2)c1 (racemic) [Example 24]
System name: Human vitronectin receptor (αvβ3) (Homo sapiens, UniProt P05106+P06756)
IC50, nM: 0.91

Could you share what IC50 was measured for CCOC(=O)CC(NC(=O)CNC(=O)c1cccc(NC(=N)N)c1)c1ccccc1 (racemic) [Example 3, trifluoroacetate salt] , tested on Human vitronectin receptor (αvβ3) (Homo sapiens, UniProt P05106+P06756)?
498

Lab note: need IC50 for N=C(N)Nc1cccc(C(=O)NCC(=O)NC(CC(=O)O)c2cc(F)cc(Br)c2)c1 (racemic) [Example 209, trifluoroacetate salt] on Human vitronectin receptor (αvβ3) (Homo sapiens, UniProt P05106+P06756), anyone have it?
0.83

IC50 of N=C(N)Nc1cccc(C(=O)NCC(=O)NC(CC(=O)O)c2ccc3c(c2)Cc2ccccc2-3)c1 (racemic) [Example 224, trifluoroacetate salt] on Human vitronectin receptor (αvβ3) (Homo sapiens, UniProt P05106+P06756)?
0.71

Recorded IC50 for O=C(O)CC(NC(=O)CNC(=O)c1cccc(NC(=O)NCc2ccccc2)c1)c1ccccc1 (stereo not drawn) [Example 119] with Human vitronectin receptor (αvβ3) (Homo sapiens, UniProt P05106+P06756), please?
3.61

Requested read-out IC50, target or system Human vitronectin receptor (αvβ3) (Homo sapiens, UniProt P05106+P06756), entry N=C(N)Nc1cccc(C(=O)NCC(=O)NC(CC(=O)O)c2cncnc2)c1 (stereo not drawn) [Example 243, trifluoroacetate salt]
0.35

Form field: IC50 recorded for C#C[C@H](CC(=O)O)NC(=O)CNC(=O)c1cccc(N/C(=N\C#N)NCc2ccc(S(N)(=O)=O)cc2)c1 [Example 158, trifluoroacetate salt, monohydrate] with Human vitronectin receptor (αvβ3) (Homo sapiens, UniProt P05106+P06756) (enter value)
10.1
